# System: biotinyl-Val-oxazolone
# Method description: self-aminoacylation, catalytic enhancement (BVO) (fold over background); higher = more active; k-Seq, kA / k0A0; sequences stand for … in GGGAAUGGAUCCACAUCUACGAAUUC…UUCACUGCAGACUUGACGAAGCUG
Fewer inactive variants are shown than the library holds.
Parameter threshold = 3. Response is Satisfied when self-aminoacylation meets or exceeds it, else Not satisfied.

Worked examples follow.
AAGUUUGCUUAGAGUCGCAAG [Fam3.1 aminoacylation ribozyme variant]; Not satisfied
CUUCUUCAAACAAUAGGUCUG [Fam1A.1 aminoacylation ribozyme variant]; Not satisfied
AUUACCAUAGUCAUCGAGUGA [Fam2.1 aminoacylation ribozyme variant]; Satisfied
AUUGAUCUAGGUCAUCGGGUG [Fam2.2 aminoacylation ribozyme variant]; Satisfied
AUUACCCUGGCCAUAGAGUGA [Fam2.1 aminoacylation ribozyme variant]; Not satisfied

Q: Would you say AGUACCGUGGUCAUCGAGUGA [Fam2.1 aminoacylation ribozyme variant] shows self-aminoacylation at minimum 3?
Ans: Satisfied

Q: Would you say CUACUCUAAACAAUCGGUCUG [Fam1A.1 aminoacylation ribozyme variant] shows self-aminoacylation at minimum 3?
Ans: Not satisfied

Q: Would you say CUACUUCUAACAAUCCGUCUG [Fam1A.1 aminoacylation ribozyme variant] shows self-aminoacylation at minimum 3?
Ans: Not satisfied

Q: Would you say AUUCACCUCGGUCAUCGGCUG [Fam2.2 aminoacylation ribozyme variant] shows self-aminoacylation at minimum 3?
Ans: Not satisfied

* * *

# Tested on: biotinyl-Phe-oxazolone
# Method description: self-aminoacylation, catalytic enhancement (BFO) (fold over background); higher = more active; k-Seq, kA / k0A0; sequences stand for … in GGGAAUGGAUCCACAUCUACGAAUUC…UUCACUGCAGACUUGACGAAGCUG
Variants at the floor of the assay were thinned out.
# key: entry, value: self-aminoacylation
Answer using only a numeral; do not append any unit.

CUACUUCACACAAGCGGUCUG [Fam1A.1 aminoacylation ribozyme variant]; 0.75
AUUACCCUGGCCAUCGAGUGU [Fam2.1 aminoacylation ribozyme variant]; 2.1
AUUCACCUAGGUCAUAAGGUG [Fam2.2 aminoacylation ribozyme variant]; 6.42
AUUUAUCUAGGUCAUCGGGUG [Fam2.2 aminoacylation ribozyme variant]; 20.1

For the next question, use this sequence.
Q: # return recorded self-aminoacylation for entry AUUACCCCGGUCAUCGGGUGA [Fam2.1 aminoacylation ribozyme variant]
Ans: 103

* * *

# Tested on: biotinyl-Val-oxazolone
# Method description: self-aminoacylation, catalytic enhancement (BVO) (fold over background); higher = more active; k-Seq, kA / k0A0; sequences stand for … in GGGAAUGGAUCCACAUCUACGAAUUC…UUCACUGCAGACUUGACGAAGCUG
Variants at the floor of the assay were thinned out.
Bucketed by reported self-aminoacylation, buckets being lo = under 1, mid = from 1 up to 2, hi = 2 and over

Worked examples follow.
AUUACCCUGGUUAUUGAGUGA [Fam2.1 aminoacylation ribozyme variant]; hi
CCUCACUUUAAGCAAUCGGUC [Fam1B.1 aminoacylation ribozyme variant]; lo
CCAUACUUCAAGCAAUCGGUC [Fam1B.1 aminoacylation ribozyme variant]; mid
AAGUUUGGUAAUAGUCGCAAG [Fam3.1 aminoacylation ribozyme variant]; mid
AUUUCCCUCGUCAUCGAGUGA [Fam2.1 aminoacylation ribozyme variant]; hi
AUUACCCUGGUCAUGGAGUGC [Fam2.1 aminoacylation ribozyme variant]; mid

Now for another entry.
Q: Returns: class label. Input: CUAAUUCUAACAAUCGGUCUG [Fam1A.1 aminoacylation ribozyme variant]
Ans: lo
